- testTarget: human recombinant PTP1B (hPTP1B) (Homo sapiens)
- Sequence (P18031 whole entry): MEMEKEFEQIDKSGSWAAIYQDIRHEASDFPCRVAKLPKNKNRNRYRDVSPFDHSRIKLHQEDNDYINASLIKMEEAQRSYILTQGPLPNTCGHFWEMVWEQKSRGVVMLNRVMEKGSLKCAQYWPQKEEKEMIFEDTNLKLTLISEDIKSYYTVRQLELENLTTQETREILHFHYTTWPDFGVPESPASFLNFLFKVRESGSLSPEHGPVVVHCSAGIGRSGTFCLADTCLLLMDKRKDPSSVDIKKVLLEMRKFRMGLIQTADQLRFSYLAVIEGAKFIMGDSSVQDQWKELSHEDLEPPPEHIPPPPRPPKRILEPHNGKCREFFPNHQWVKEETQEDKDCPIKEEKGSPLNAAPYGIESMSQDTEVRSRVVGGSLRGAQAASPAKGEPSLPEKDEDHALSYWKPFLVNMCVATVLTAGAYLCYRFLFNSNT
- experimentSummary: Inhibition of tri-phosphorylated insulin receptor dodecaphosphopeptide dephosphorylation by hPTP1B (malachite green phosphate detection)
- experimentalParameters: recombinant PTP1B, insulin receptor 1142-1153 triphosphopeptide substrate, 37° C., 30 min, pH 7.4
measuredEndpoint: IC50 (nM)

A: CC(=O)Oc1cc(S(=O)(=O)Oc2ccc(C(=O)c3c(Cc4ccc(Br)cc4)sc(C)c3C)cc2C2CCCC2)ccc1C(=O)O [Example 24]
B: CC(=O)Oc1cc(S(=O)(=O)Oc2ccc(C(=O)c3c(Cc4ccccc4)oc(C)c3C)cc2C2CCCC2)ccc1C(=O)O [Example 22]
Exercise: compare A and B ; which one has the greater IC50? Choose, then provide that item's label.
B

Reference source for all entries: patent US6683107B2
